The measurements presented in this section are drawn from paper PMC7155171.

PbLuc primary screen (2uM): inhibition % (n=1) values, listed per item
Test system: P. berghei liver stage (PbLuc)
Parameters: species or system HepG2-A16-CD81; P. berghei luciferase sporozoite infection of hepatocytes, liver stage luminescence
Conditions: inhibitor
Assay endpoint: PbLuc primary screen (2uM): inhibition % (n=1)

                                    compound    result
 0  Cc1[nH]c2cc(C3CCN(Cc4ccccc4F)C3)nn2c(=O)c1C (centres unmarked)    28.64%
 1  CCc1c(C)[nH]c2cc(C3CCN(Cc4ccc(F)cc4)C3)nn2c1=O (centres unmarked)    40.31%
 2  COc1cccc(Cn2nc(C)c3c(NC(=O)C(C)OC)[nH]nc32)c1 (centres unmarked)   -10.78%
 3    CCc1ccc(NC(=O)Nc2c(O)c3ccccc3oc2=O)cc1    49.69%
 4   CCC(=O)Nc1[nH]nc2c1c(C)nn2Cc1cccc(OC)c1    15.82%
 5  Clc1cccc(-c2cccc(N3CCC(NC4CCOCC4)CC3)c2)c1   -46.68%
 6  CCc1c(C)nn2c(=O)cc(C3CCN(C(=O)c4ccn(C)n4)C3)[nH]c12 (centres unmarked)   -25.98%
 7  CCc1c(C)[nH]c2cc(C3CCN(Cc4cccnc4)C3)nn2c1=O (centres unmarked)    31.56%
 8  Cc1ncc(CN2CCc3c([nH]c4cc(C5CC5)nn4c3=O)C2)n1C    42.53%
 9          COCCCC(=O)N1CC(=O)Nc2cc(Br)ccc21    22.41%
10  CCc1cc(=O)n2nc(C3CCN(C(=O)c4ccncc4)CC3)cc2[nH]1    -9.67%
11  CC(NC(=O)CCC1=NC(=C2N=CN=N2)NO1)c1ccc(F)cc1F (centres unmarked)  -26.534%
12  Cn1ccc(C(=O)N2CCCC(c3cc(=O)n(C)[nH]3)C2)n1 (centres unmarked)    2.044%
13  Cc1ncsc1C(=O)N1CCCCC1c1cc2[nH]c(C)c(C)c(=O)n2n1 (centres unmarked)    11.32%
14        Cc1cc(=O)n(-c2ccc3nnc(C)n3n2)[nH]1    18.99%
15  COc1cccc(F)c1-c1nc2c(C3CC3)[nH]n(C)c-2n1    21.14%
16       Cn1nc(C2CCC2)c(-c2ccc3c(c2)OCO3)c1N  14.0603%
17  COCCC(=O)N1Cc2[nH]c3c(C)c(-c4cccs4)nn3c(=O)c2C1   -12.93%
18    CSc1cccc(NC(=O)Nc2c(O)c3ccccc3oc2=O)c1  28.0462%
19  CCC(CO)N(Cc1cccnc1)C(=O)c1ccc(C(F)(F)F)[nH]c1=O (centres unmarked)    20.89%
20  Cc1[nH]n(C2CCS(=O)(=O)C2)c(=O)c1Cc1cccc(Cl)c1 (centres unmarked)    34.05%
21          CCCc1nn(C)c(N)c1-c1ccc2c(c1)OCO2    5.918%
22  Cc1[nH]n(C2CCS(=O)(=O)C2)c(=O)c1Cc1ccccc1Cl (centres unmarked)  -0.8948%
23  COCCC(=O)N1CCC(c2cc(=O)n(C)[nH]2)C1 (centres unmarked)     15.3%
24  Cc1[nH]c2cc(C3CCN(Cc4cccc(F)c4F)C3)nn2c(=O)c1C (centres unmarked)     18.8%
25     COc1cc2c(cc1-c1nc3c[nH]n(C)c-3n1)OCO2    21.97%
26  Cc1[nH]n(C2CCS(=O)(=O)C2)c(=O)c1CCc1ccccc1 (centres unmarked)   -33.83%
27  CCc1c(C)nn2c(=O)cc(C3CCN(C(=O)c4cnn(C)c4)C3)[nH]c12 (centres unmarked)   -18.64%
28  COc1cccc(C2=NN=CC2=C2NC(CN3CCCC3)=NO2)c1    45.82%
29   CCn1[nH]cc2nc(-c3cc(OC)c(OC)cc3OC)nc1-2    13.04%
30  Cc1cccc(C2N3CCC4(CC3)c3[nH]c5ccccc5c3CCN24)n1 (centres unmarked)    38.22%
31  CC(=O)N1CCCN(C(=O)CCOc2ccc(C(C)C)cc2)CC1  36.9515%
32  CCc1nc(CN(C)C2CCN(CCn3cc(C#N)cn3)C2)no1 (centres unmarked)   -38.96%
33  CCc1cc(=O)n2nc(C3CCN(C(=O)c4ccccn4)CC3)cc2[nH]1    26.22%
34  CN(Cc1ccc(F)c(F)c1)C(=O)CCC1=NC(=C2N=CN=N2)NO1    6.397%
35  Cn1cc(C(=O)N2CCCC(c3cc(=O)n(C)[nH]3)C2)cn1 (centres unmarked)    27.39%
36  COCC(=O)Nc1[nH]nc2c1c(C)nn2Cc1cccc(OC)c1    27.76%
37  COc1cc2c(cc1-c1nc3c[nH]n(C(C)C4CC4)c-3n1)OCO2 (centres unmarked)    67.28%
